Inhibition (%) of α-glucosidase by entry:
Test system: α-glucosidase from Saccharomyces cerevisiae
protocol: In vitro α-glucosidase inhibition study (pNPG substrate, absorbance 405 nm)
Format: biochemical
experimentalContext: 2 mM of single substance; mean ± SD, n = 3

{"columns": ["compound", "Inhibition (%) of α-glucosidase"],
 "data": [
  ["O=c1c(O[C@@H]2O[C@H](CO)[C@@H](O)[C@H](O)[C@H]2O)c(-c2ccc(O)cc2)oc2cc(O)cc(O)c12 [kaempferol 3-glucoside]", 13.2],
  ["OC[C@H]1O[C@@H](Oc2cc3c(O)cc(O)cc3[o+]c2-c2ccc(O)c(O)c2)[C@H](O)[C@@H](O)[C@@H]1O [cyanidin 3-glucoside]", 7.8],
  ["O=C(/C=C/c1ccc(O)c(O)c1)O[C@@H](C(=O)O)[C@@H](O)C(=O)O", 4.6]
]}
